target: Beta-2 adrenergic receptor (Homo sapiens, UniProt P07550); experiment: Agonist activity at human beta2 adrenergic receptor expressed in cells by cAMP accumulation assay; assay type: functional, cell-based
Sequence (P07550 whole entry): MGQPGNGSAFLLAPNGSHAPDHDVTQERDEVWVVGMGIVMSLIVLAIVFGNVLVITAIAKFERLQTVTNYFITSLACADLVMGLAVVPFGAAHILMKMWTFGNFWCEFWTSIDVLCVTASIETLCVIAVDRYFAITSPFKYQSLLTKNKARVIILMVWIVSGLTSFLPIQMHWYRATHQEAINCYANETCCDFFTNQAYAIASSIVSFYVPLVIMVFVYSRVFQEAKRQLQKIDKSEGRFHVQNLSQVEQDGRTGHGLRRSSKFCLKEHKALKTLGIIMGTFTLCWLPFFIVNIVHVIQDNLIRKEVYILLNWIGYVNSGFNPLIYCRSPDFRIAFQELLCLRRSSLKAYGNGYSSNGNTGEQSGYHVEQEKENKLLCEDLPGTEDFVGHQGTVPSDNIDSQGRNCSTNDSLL
Readout Type: pEC50
Hey, just a heads up that pEC50 is the negative log base 10 of the concentration in molar.

Enquiry: For Beta-2 adrenergic receptor (Homo sapiens, UniProt P07550), give the measured pEC50 of the entry NCCCOc1ccc(Nc2ccc(CCNC[C@H](O)c3ccc(O)c4[nH]c(=O)ccc34)cc2)cc1
Return: 9.80

Enquiry: For Beta-2 adrenergic receptor (Homo sapiens, UniProt P07550), give the measured pEC50 of the entry CC(C)(C)OC(=O)NCCOc1ccc(Nc2ccc(CCNC[C@H](O)c3ccc(O)c4[nH]c(=O)ccc34)cc2)cc1
Return: 9.30

Enquiry: For Beta-2 adrenergic receptor (Homo sapiens, UniProt P07550), give the measured pEC50 of the entry COc1ccc(Nc2ccc(CCNC[C@H](O)c3ccc(O)c4[nH]c(=O)ccc34)cc2)cc1-c1ccccc1CN
Return: 9.90

Enquiry: For Beta-2 adrenergic receptor (Homo sapiens, UniProt P07550), give the measured pEC50 of the entry CC(C)(N)COc1ccc(Nc2ccc(CCNC[C@H](O)c3ccc(O)c(NC=O)c3)cc2)cc1
Return: 9.60

Enquiry: For Beta-2 adrenergic receptor (Homo sapiens, UniProt P07550), give the measured pEC50 of the entry O=C(NCCOc1ccc(Nc2ccc(CCNC[C@H](O)c3ccc(O)c4[nH]c(=O)ccc34)cc2)cc1)c1ccccc1
Return: 9.30

Enquiry: For Beta-2 adrenergic receptor (Homo sapiens, UniProt P07550), give the measured pEC50 of the entry O=c1ccc2c([C@@H](O)CNCCc3ccc(Nc4ccc(OCCN5CCNCC5)cc4)cc3)ccc(O)c2[nH]1
Return: 9.90
